Ref: paper PMC8156934

# method: Photophysical properties (UV–Vis absorption and fluorescence spectra)
# Format: physicochemical
# conditionLabel: PBS (3%w/w tween 80), 2 µM, excited at the maximum absorption wavelength
endpointLabel: λem emission maximum wavelength (nm)

1. CN(C)c1ccc(/C=C/C(=O)c2cccs2)cc1
520
2. CN(C)c1ccc(/C=C/C(=O)c2ccc(N(C)C)cc2)cc1
542
3. Cc1ccc(C(=O)/C=C/c2ccc(N(C)C)cc2)cc1
521
4. CN(C)c1ccc(/C=C/C(=O)c2ccc(O)cc2)cc1
526
5. COc1ccc(C(=O)/C=C/c2ccc(N(C)C)cc2)cc1
529
6. CN(C)c1ccc(/C=C/C(=O)c2ccc(N)cc2)cc1
524

###

# method: Photophysical properties (UV–Vis absorption and fluorescence spectra)
# Type: physicochemical
# conditionLabel: DMSO, 2 µM, excited at the maximum absorption wavelength
endpointLabel: λem emission maximum wavelength (nm)

1. Cc1ccc(C(=O)/C=C/c2ccc(N(C)C)cc2)cc1
539
2. CN(C)c1ccc(/C=C/C(=O)c2cccs2)cc1
560
3. CN(C)c1ccc(/C=C/C(=O)c2ccc(N(C)C)cc2)cc1
516
4. CN(C)c1ccc(/C=C/C(=O)c2ccc(N)cc2)cc1
512
5. COc1ccc(C(=O)/C=C/c2ccc(N(C)C)cc2)cc1
532
6. CN(C)c1ccc(/C=C/C(=O)c2ccc(O)cc2)cc1
520

###

# method: Photophysical properties (UV–Vis absorption and fluorescence spectra)
# Format: physicochemical
# conditionLabel: MeOH, 2 µM, n = 3, relative to fluorescein in 0.1 M NaOH
endpointLabel: Φf fluorescence quantum yields

Solved cases below.
1. CN(C)c1ccc(/C=C/C(=O)c2ccc(N)cc2)cc1
0.027
2. CN(C)c1ccc(/C=C/C(=O)c2cccs2)cc1
0.012

1 = Cc1ccc(C(=O)/C=C/c2ccc(N(C)C)cc2)cc1
2 = CN(C)c1ccc(/C=C/C(=O)c2ccc(N(C)C)cc2)cc1
Ask: In terms of reported Φf fluorescence quantum yields, does 1 or 2 have the smaller number? // respond with label for picked entry
Result: 1
(1: 0.012, 2: 0.024)

###

# method: Photophysical properties (UV–Vis absorption and fluorescence spectra)
# Assay type: physicochemical
# conditionLabel: PBS (3%w/w tween 80), 2 µM, n = 3, relative to fluorescein in 0.1 M NaOH
endpointLabel: Φf fluorescence quantum yields

1. CN(C)c1ccc(/C=C/C(=O)c2ccc(N)cc2)cc1
0.18
2. CN(C)c1ccc(/C=C/C(=O)c2cccs2)cc1
0.11
3. Cc1ccc(C(=O)/C=C/c2ccc(N(C)C)cc2)cc1
0.18
4. CN(C)c1ccc(/C=C/C(=O)c2ccc(N(C)C)cc2)cc1
0.17
5. COc1ccc(C(=O)/C=C/c2ccc(N(C)C)cc2)cc1
0.15
6. CN(C)c1ccc(/C=C/C(=O)c2ccc(O)cc2)cc1
0.11

###

# method: Photophysical properties (UV–Vis absorption and fluorescence spectra)
# Assay type: physicochemical
# conditionLabel: DMSO, 2 µM
endpointLabel: λabs absorption maximum wavelength (nm)

1) CN(C)c1ccc(/C=C/C(=O)c2ccc(N)cc2)cc1 [3f]
412
2) Cc1ccc(C(=O)/C=C/c2ccc(N(C)C)cc2)cc1 [3e]
420
3) CN(C)c1ccc(/C=C/C(=O)c2cccs2)cc1 [3b]
431
4) CN(C)c1ccc(/C=C/C(=O)c2ccc(O)cc2)cc1 [3c]
413
5) CN(C)c1ccc(/C=C/C(=O)c2ccc(N(C)C)cc2)cc1 [3d]
422
6) COc1ccc(C(=O)/C=C/c2ccc(N(C)C)cc2)cc1 [3a]
417
